// each record: one item and its IC50 for SARS-CoV-2 Main Protease (SARS-CoV-2)
assay.endpoint: IC50 (µM)

INSERT INTO results (compound, modifier, endpoint_result) VALUES
  ('C[C@H](C(=O)Nc1cncnc1)c1ccccc1 (stereo in doubt)', '>', 99.5),
  ('O=C(NCCc1cccc(F)c1)C(c1cccnc1)N(C(=O)c1ccco1)c1ccc(C2CCCC2)cc1 (centres undefined)', '=', 0.282),
  ('O=C(Cc1cc(Cl)cc(CC2CC(=O)N2)c1)Nc1cncc2ccccc12 (centres undefined)', '=', 4.57),
  ('O=C(NCCc1cccc(F)c1)C(c1cccnc1)N(C(=O)c1cnc[nH]1)c1ccc(OC(F)F)cc1 (centres undefined)', '=', 22.1),
  ('O=C(Cc1cccc(Cl)c1)Nc1cnc2n1CCCC2', '=', 93.8),
  ('CC1(NC(=O)CN2Cc3ccc(Cl)cc3C3(CCN(c4cncc5ccccc45)C3=O)C2)CC1 (centres undefined)', '=', 0.271),
  ('Cc1ccc(Nc2cc(Cl)cc(CC(=O)Nc3cncc4ccccc34)c2)c(Br)c1', '=', 1.9),
  ('O=C(Cc1cc(Cl)cc(Nc2ccc(OC(F)F)cc2)c1)Nc1cncc2ccccc12', '=', 1.9),
  ('O=C(Nc1cncc2ccccc12)C1(CNc2c[nH]c(=O)[nH]c2=O)CCOc2cc(Cl)ccc21 (centres undefined)', '=', 5.36);

====

Below are IC50 values measured for SARS-CoV-2 Main Protease (SARS-CoV-2) (UniProt P0DTD1).
assay.endpoint: IC50 (µM)

INSERT INTO assay_data (compound, measurement_unit, modifier, endpoint_result) VALUES
  ('Cc1ccccc1CC(=O)Nc1cncc2ccccc12', 'µM', '=', 29.5),
  ('CC(C)CS(=O)(=O)N1Cc2ccc(Cl)cc2C(C(=O)Nc2cncc3ccccc23)C1 (stereo not given)', 'µM', '=', 0.107),
  ('CC(C)(C)c1ccc(N(C(=O)c2nnn[nH]2)C(C(=O)NCCc2cccc(F)c2)c2cccnc2)cc1 (stereo not given)', 'µM', '>', 99.5),
  ('O=C(Cc1cc(Cl)cc(NCc2ccccc2Br)c1)Nc1cncc2ccccc12', 'µM', '=', 3.5),
  ('O=C(Cc1cc(Cl)cc(Nc2ccc(Br)c([N+](=O)[O-])c2)c1)Nc1cncc2ccccc12', 'µM', '=', 2.06);

====

Attribute: pIC50
Molecular target: SARS-CoV-2 Main Protease (SARS-CoV-2)
pIC50: −log10 of the molar value.
assay.endpoint: pIC50

INSERT INTO results (compound, assay_endpoint, modifier, endpoint_result) VALUES
  ('O=C(Nc1cncc2ccccc12)C1COc2c(Cl)cccc21 (centres undefined)', 'pIC50', '=', 5.32),
  ('CC(C)(C)c1ccc(N(C(=O)c2cnc[nH]2)C(C(=O)NCCc2cccc(F)c2)c2cccnc2)cc1 (centres undefined)', 'pIC50', '=', 6.53),
  ('N#Cc1cccc(NC(=O)[C@@H]2CN(C(=O)CCl)CCN2S(=O)(=O)c2ccsc2)c1 (stereo in doubt)', 'pIC50', '=', 6.38),
  ('O=C(CN1CC(C(=O)Nc2cncc3cc(F)ccc23)c2cc(Cl)ccc2C1=O)NC1CC1 (centres undefined)', 'pIC50', '=', 6.25),
  ('O=C1N(c2cncc3ccccc23)CCC12CN(S(=O)(=O)N1CCC1)Cc1ccc(Cl)cc12 (centres undefined)', 'pIC50', '=', 6.48),
  ('Cc1cn2nc(NCc3ccc4ncccc4c3)sc2n1', 'pIC50', '<', 4.00),
  ('Cc1ccncc1NC(=O)N(C)c1cccc(Cl)c1', 'pIC50', '<', 4.00),
  ('NC(=O)c1ccc2c(NC(=O)Cc3cccc(Cl)c3)cncc2c1', 'pIC50', '=', 5.80),
  ('CC(C)(C)c1ccc(N(C(=O)c2ccncc2)C(C(=O)NCCc2cccc(F)c2)c2cccnc2)cc1 (centres undefined)', 'pIC50', '<', 4.00),
  ('Cc1ccc(NC2=C(c3ccccc3)C(=O)N(Cc3cccnc3)C2=O)cc1C', 'pIC50', '<', 4.00),
  ('Cc1ccc(N(Cc2cscn2)C(=O)Cc2cncc3ccccc23)nc1', 'pIC50', '<', 4.00),
  ('N#CC1(CS(=O)(=O)N2Cc3ccc(Cl)cc3C3(CCN(c4cncc5ccc(C(F)F)cc45)C3=O)C2)CC1 (centres undefined)', 'pIC50', '=', 6.45),
  ('CCOc1c(Cl)cccc1CC(=O)Nc1cncc2ccccc12', 'pIC50', '=', 5.16),
  ('COc1c(Cl)cccc1OCCNC(=O)c1cc(=O)[nH]c2ccccc12', 'pIC50', '=', 5.19),
  ('Cc1ccnnc1NC(=O)Cc1cccc(Cl)c1', 'pIC50', '<', 4.00),
  ('CN(C)C(=O)C[C@]1(C(=O)Nc2cncc3ccccc23)CCOc2ccc(Cl)cc21 (stereo in doubt)', 'pIC50', '=', 5.89),
  ('Cc1cnoc1C(=O)N(c1ccc(C(C)(C)C)cc1)C(C(=O)NCCc1cccc(F)c1)c1cccnc1 (centres undefined)', 'pIC50', '<', 4.00),
  ('Cc1nc2ccc(N(C(=O)c3cocn3)C(C(=O)NCCc3cccc(F)c3)c3cccnc3)cc2o1 (centres undefined)', 'pIC50', '<', 4.00),
  ('O=C(Cc1cc(Cl)cc(Nc2cccc(C(F)(F)F)c2F)c1)Nc1cncc2ccccc12', 'pIC50', '=', 5.74),
  ('O=C(Cc1cc(Cl)cc(Nc2ccc(OCc3ccccn3)c(Cl)c2)c1)Nc1cncc2ccccc12', 'pIC50', '=', 5.68),
  ('CCOC(=O)CCCNC(=O)C(c1cccnc1)N(C(=O)c1cocn1)c1ccc(C(C)(C)C)cc1 (centres undefined)', 'pIC50', '=', 5.20),
  ('O=C(CC1(C(=O)Nc2cncc3ccccc23)CCOc2ccc(Cl)cc21)N1CCN(C2CCOC2)CC1 (centres undefined)', 'pIC50', '=', 5.18),
  ('Cc1sc(Nc2cc(Cl)cc(CC(=O)Nc3cncc4ccccc34)c2)nc1-c1ccc(Cl)cc1', 'pIC50', '=', 5.55),
  ('COCCNC(=O)C(c1cccnc1)N(C(=O)c1cocn1)c1ccc(C(C)(C)C)cc1 (centres undefined)', 'pIC50', '=', 5.07),
  ('O=C(CC1(C(=O)Nc2cncc3ccccc23)CCOc2ccc(Cl)cc21)Nc1nnco1 (centres undefined)', 'pIC50', '<', 4.00),
  ('Cc1cc(C(=O)CCl)c(C)n1NC(=O)c1n[nH]c(=O)c2ccccc12', 'pIC50', '=', 5.22),
  ('COC1CCC2OCCN(C(=O)c3ccc4nc[nH]c4c3)C2C1 (centres undefined)', 'pIC50', '<', 4.00),
  ('O=C1CC(N2CC(C(=O)Nc3cncc4ccccc34)c3cc(Cl)ccc3C2=O)CN1 (centres undefined)', 'pIC50', '=', 6.17),
  ('CC(C)(C)c1ccc(N(C(=O)c2cocn2)C(C(=O)NC2CC(F)(F)C2)c2cccnc2)cc1 (centres undefined)', 'pIC50', '=', 5.63),
  ('O=C(Cc1cc(Cl)cc(NCCc2ccc(C(F)(F)F)cc2)c1)Nc1cncc2ccccc12', 'pIC50', '=', 5.25),
  ('CC(C)(C)c1ccc(N(C(=O)c2ccco2)C(C(=O)NCCc2cccc(F)c2)c2cc(=O)[nH]c3ccccc23)cc1 (centres undefined)', 'pIC50', '=', 5.64),
  ('O=C(NNC(=O)c1cccc(-n2nccc2C(F)(F)F)c1)OCc1ccccc1', 'pIC50', '<', 4.00),
  ('CCN(C)CCOc1ccc2cncc(N3CCC4(CN(S(=O)(=O)CC5(C#N)CC5)Cc5ccc(Cl)cc54)C3=O)c2c1 (centres undefined)', 'pIC50', '=', 6.40),
  ('CC1C(=O)NCCN1C(=O)CCCc1c[nH]c2ccccc12 (centres undefined)', 'pIC50', '<', 4.00),
  ('COc1cccc(N2CCN(C(=O)c3cc(=O)[nH]c4ccccc34)CC2)c1', 'pIC50', '=', 5.12),
  ('c1ccc2oc(C3CCCN(Cc4cnc5cnccn45)C3)nc2c1 (centres undefined)', 'pIC50', '<', 4.00),
  ('NCc1cn(CC(=O)N(CC(=O)N2CCNCC2)c2ccc(-c3ccccc3)cc2)nn1', 'pIC50', '<', 4.00),
  ('O=C(Cc1cc(Cl)cc(Nc2nc(Cl)nc3nc[nH]c23)c1)Nc1cncc2ccccc12', 'pIC50', '=', 5.63),
  ('CC(C)(C)c1ccc(N(C(=O)c2c[nH]c(=O)s2)C(C(=O)NCCc2cccc(F)c2)c2cccnc2)cc1 (centres undefined)', 'pIC50', '=', 4.54);
